// reported ST486 % killing (% of TRAIL activity) per item
Target: T1, DR4 (TRAIL-R1) on cancer cells (human, UniProt O00220 24-468)
T1 sequence: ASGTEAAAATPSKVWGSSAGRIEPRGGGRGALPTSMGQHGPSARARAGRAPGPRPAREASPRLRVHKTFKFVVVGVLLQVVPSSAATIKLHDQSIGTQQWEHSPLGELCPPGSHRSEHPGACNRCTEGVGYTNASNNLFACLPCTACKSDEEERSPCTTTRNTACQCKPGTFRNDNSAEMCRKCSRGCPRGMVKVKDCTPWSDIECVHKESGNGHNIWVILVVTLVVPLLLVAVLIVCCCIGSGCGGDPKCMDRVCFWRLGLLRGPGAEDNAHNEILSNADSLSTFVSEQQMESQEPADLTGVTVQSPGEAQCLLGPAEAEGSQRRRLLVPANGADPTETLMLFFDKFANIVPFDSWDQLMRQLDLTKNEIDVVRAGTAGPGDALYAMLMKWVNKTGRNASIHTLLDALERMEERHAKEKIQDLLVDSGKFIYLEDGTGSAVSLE
Test: cell-based or functional assay

# binder, ST486 % killing (% of TRAIL activity) [%]
data = [
    ("71p88P1D9 (designed binder) EPPTQKPKKIVNAKKDVVNTKMFEELKSRLDTLAQEVALLKEQQALQTVCLKGTKVHMKCFLAFTQTKTFHEASEDCISRGGTLSTPQTGSENDALYEYLRQSVGNEAEIWLGLNGWVAGVGWVDMTGARIAYKNWETEITAQPDGGGGWRWENCAVLSGAANGKWFDKRCRDQLPYICQFGIV", 28),
    ("71p88P1B3 (designed binder) EPPTQKPKKIVNAKKDVVNTKMFEELKSRLDTLAQEVALLKEQQALQTVCLKGTKVHMKCFLAFTQTKTFHEASEDCISRGGTLSTPQTGSENDALYEYLRQSVGNEAEIWLGLNGWLEGSGWVDMTGARIAYKNWETEITAQPDGGVQWRWENCAVLSGAANGKWFDKRCRDQLPYICQFGIV", 88),
    ("71p88P1B9 (designed binder) EPPTQKPKKIVNAKKDVVNTKMFEELKSRLDTLAQEVALLKEQQALQTVCLKGTKVHMKCFLAFTQTKTFHEASEDCISRGGTLSTPQTGSENDALYEYLRQSVGNEAEIWLGLNGWLAGSGWVDMTGARIAYKNWETEITAQPDGGGGWPWENCAVLSGAANGKWFDKRCRDQLPYICQFGIV", 34),
    ("71p88P1G11 (designed binder) EPPTQKPKKIVNAKKDVVNTKMFEELKSRLDTLAQEVALLKEQQALQTVCLKGTKVHMKCFLAFTQTKTFHEASEDCISRGGTLSTPQTGSENDALYEYLRQSVGNEAEIWLGLNGWMAGVGWVDMTGARIAYKNWETEITAQPDGGPGLRWENCAVLSGAANGKWFDKRCRDQLPYICQFGIV", 45),
    ("71p88P1G1 (designed binder) EPPTQKPKKIVNAKKDVVNTKMFEELKSRLDTLAQEVALLKEQQALQTVCLKGTKVHMKCFLAFTQTKTFHEASEDCISRGGTLSTPQTGSENDALYEYLRQSVGNEAEIWLGLNGWMEGVGWVDMTGARIAYKNWETEITAQPDGGPPWRWENCAVLSGAANGKWFDKRCRDQLPYICQFGIV", 78),
    ("71p88P1F2 (designed binder) EPPTQKPKKIVNAKKDVVNTKMFEELKSRLDTLAQEVALLKEQQALQTVCLKGTKVHMKCFLAFTQTKTFHEASEDCISRGGTLSTPQTGSENDALYEYLRQSVGNEAEIWLGLNGWLEGSGWVDMTGARIAYKNWETEITAQPDGGFPARWENCAVLSGAANGKWFDKRCRDQLPYICQFGIV", 58),
    ("71p88P1A3 (designed binder) EPPTQKPKKIVNAKKDVVNTKMFEELKSRLDTLAQEVALLKEQQALQTVCLKGTKVHMKCFLAFTQTKTFHEASEDCISRGGTLSTPQTGSENDALYEYLRQSVGNEAEIWLGLNGYLAGTGWVDMTGARIAYKNWETEITAQPDGGRVLAWENCAVLSGAANGKWFDKRCRDQLPYICQFGIV", 41),
    ("71p88P1B4 (designed binder) EPPTQKPKKIVNAKKDVVNTKMFEELKSRLDTLAQEVALLKEQQALQTVCLKGTKVHMKCFLAFTQTKTFHEASEDCISRGGTLSTPQTGSENDALYEYLRQSVGNEAEIWLGLNGWLEGYGWVDMTGARIAYKNWETEITAQPDGGAERAWENCAVLSGAANGKWFDKRCRDQLPYICQFGIV", -15),
    ("71p88P1B12 (designed binder) EPPTQKPKKIVNAKKDVVNTKMFEELKSRLDTLAQEVALLKEQQALQTVCLKGTKVHMKCFLAFTQTKTFHEASEDCISRGGTLSTPQTGSENDALYEYLRQSVGNEAEIWLGLNGWIEGAGWVDMTGARIAYKNWETEITAQPDGGWRSRWENCAVLSGAANGKWFDKRCRDQLPYICQFGIV", 26),
    ("71p88P1G4 (designed binder) EPPTQKPKKIVNAKKDVVNTKMFEELKSRLDTLAQEVALLKEQQALQTVCLKGTKVHMKCFLAFTQTKTFHEASEDCISRGGTLSTPQTGSENDALYEYLRQSVGNEAEIWLGLNGYMTGVGWVDMTGARIAYKNWETEITAQPDGGRSWKWENCAVLSGAANGKWFDKRCRDQLPYICQFGIV", 75),
    ("71p88P1A1 (designed binder) EPPTQKPKKIVNAKKDVVNTKMFEELKSRLDTLAQEVALLKEQQALQTVCLKGTKVHMKCFLAFTQTKTFHEASEDCISRGGTLSTPQTGSENDALYEYLRQSVGNEAEIWLGLNGWMDGSGWVDMTGARIAYKNWETEITAQPDGGRLWRWENCAVLSGAANGKWFDKRCRDQLPYICQFGIV", 57),
]

This collection of values is drawn from patent US20120021995A1.
